# test: Selectivity index, ratio of IC50 for human HHL-5 cells to IC50 for human SMMC-7721 cells by CCK8 assay
# Format: toxicity
# condition: HHL-5 cells versus SMMC-7721 cells, read-out: Ratio IC50
Below, each entry is listed alongside its reported selectivity ratio.
Form rule: numeric answer, no unit written next to it.

Consider the following illustrative entries.
- compound: "CN1CC2=C(NC(N)=NC2c2ccc(F)c(C(F)(F)F)c2)/C(=C/c2ccc(F)c(C(F)(F)F)c2)C1.Cl (stereo not drawn)"
  selectivity ratio: 5.5
- compound: "CN1CC2=C(NC(N)=NC2c2ccccc2C(F)(F)F)/C(=C/c2ccccc2C(F)(F)F)C1.Cl (stereo not drawn)"
  selectivity ratio: 2.3

With those in mind, consider the next compound.
// selectivity ratio value for CN1CC2=C(NC(N)=NC2c2ccc(F)cc2F)/C(=C/c2ccc(F)cc2F)C1.Cl (stereo not drawn) : 4.9

====

# test: Selectivity index, ratio of IC50 for human HHL-5 cells to IC50 for human SMMC-7721 cells by CCK8 assay
# Format: toxicity
# condition: HHL-5 cells versus SMMC-7721 cells, read-out: Ratio IC50
property_label: selectivity ratio
Form rule: numeric answer, no unit written next to it.

Consider the following illustrative entries.
- compound: "COc1cc(/C=C2\\CN(C)CC3=C2NC(N)=NC3c2cc(OC)c(OC)c(OC)c2)cc(OC)c1OC.Cl (stereo not given)"
  selectivity ratio: 4.9
- compound: "CN1CC2=C(NC(N)=NC2c2cccc(F)c2)/C(=C/c2cccc(F)c2)C1.Cl (stereo not given)"
  selectivity ratio: 5.1
- compound: "COc1ccccc1/C=C1\\CN(C)CC2=C1NC(N)=NC2c1ccccc1OC.Cl (stereo not given)"
  selectivity ratio: 1.7
- compound: "CN1CC2=C(NC(N)=NC2c2ccc(C(F)(F)F)cc2F)/C(=C/c2ccc(C(F)(F)F)cc2F)C1.Cl (stereo not given)"
  selectivity ratio: 5.5

With those in mind, consider the next compound.
// selectivity ratio value for COc1cc(/C=C/C(=O)CC(=O)/C=C/c2ccc(O)c(OC)c2)ccc1O : 1.5

====

Below, each entry is listed alongside its reported selectivity ratio.
# test: Selectivity index, ratio of IC50 for human HHL-5 cells to IC50 for human HepG2 cells by CCK8 assay
# Format: toxicity
# condition: HHL-5 cells versus HepG2 cells, read-out: Ratio IC50
Form rule: numeric answer, no unit written next to it.

- molecule: "COc1ccc(/C=C2\\CN(C)CC3=C2NC(N)=NC3c2ccc(OC)cc2)cc1.Cl (configuration not stated)"
  measured_result: 1.4
- molecule: "CN1CC2=C(NC(N)=NC2c2c(F)cccc2C(F)(F)F)/C(=C/c2c(F)cccc2C(F)(F)F)C1.Cl (configuration not stated)"
  measured_result: 3.4

With those in mind, consider the next molecule.
// selectivity ratio value for COc1ccc([N+](=O)[O-])cc1/C=C1\CN(C)CC2=C1NC(N)=NC2c1cc([N+](=O)[O-])ccc1OC.Cl (configuration not stated) : 2.4

====

# test: Selectivity index, ratio of IC50 for human HHL-5 cells to IC50 for human HepG2 cells by CCK8 assay
# Assay type: toxicity
# condition: HHL-5 cells versus HepG2 cells, read-out: Ratio IC50
property_label: selectivity ratio

Consider the following illustrative entries.
- compound: "CN1CC2=C(NC(N)=NC2c2cccc([N+](=O)[O-])c2)/C(=C/c2cccc([N+](=O)[O-])c2)C1.Cl (centres undefined)"
  selectivity ratio: 2.4
- compound: "CN1CC2=C(NC(N)=NC2c2ccc(F)cc2Br)/C(=C/c2ccc(F)cc2Br)C1.Cl (centres undefined)"
  selectivity ratio: 2.3
- compound: "CN1CC2=C(NC(N)=NC2c2ccc(C(F)(F)F)cc2)/C(=C/c2ccc(C(F)(F)F)cc2)C1.Cl (centres undefined)"
  selectivity ratio: 17.2

// selectivity ratio value for COc1cc(/C=C/C(=O)CC(=O)/C=C/c2ccc(O)c(OC)c2)ccc1O : 1.6
